test system: OVCAR-8 ovarian; experiment: NCI tumour cell line growth inhibition, 48 h
Recorded Metric: TGI

Answered cases to consult:
[
  {
    "Compound": "CCN(CC)CCNc1ccc([N+](=O)[O-])c2nc3ccccc3c(N)c12",
    "TGI": "> 10 µM"
  },
  {
    "Compound": "COc1c(OC(C)=O)cc2c(OC(C)=O)c1CC(C)CC(OC)C(O)C(C)/C=C(\\C)C(OC(N)=O)C(OC)/C=C\\C=C(/C)C(=O)N2 (stereo not given)",
    "TGI": "> 100 µM"
  },
  {
    "Compound": "OC(c1ccccc1)(c1ccccc1)c1ccccn1",
    "TGI": "> 100 µM"
  },
  {
    "Compound": "COc1ccc2c(=O)c([Se]c3coc4cc(OC)ccc4c3=O)coc2c1",
    "TGI": "> 100 µM"
  },
  {
    "Compound": "COC(=O)C12CCC(C(=O)OC)(Cc3c(c4ccccc4n3S(=O)(=O)c3ccccc3)C1)C2=O (stereo not given)",
    "TGI": "> 100 µM"
  }
]

The value of TGI recorded for Clc1cc2nc(C3CCCO3)[nH]c2cc1Cl (stereo not given) when tested on OVCAR-8 ovarian reads > 100 µM

The value of TGI recorded for CC(C)(C)OC(=O)N1C(C2=COc3ccccc3O2)=COc2ccccc21 when tested on OVCAR-8 ovarian reads > 100 µM

The value of TGI recorded for O=C(N[C@H](c1ccc(Cl)c(Cl)c1)C1CNC1)c1ccc2cnccc2c1 when tested on OVCAR-8 ovarian reads 23 µM

The value of TGI recorded for CN(C)CC(C(=O)c1ccccc1)c1ccccc1 (stereo not given) when tested on OVCAR-8 ovarian reads 6.56 µM

The value of TGI recorded for CCN(CC)CCn1ncc2ccc3c(c(=O)c4cccnc4n3CCN(CC)CC)c21 when tested on OVCAR-8 ovarian reads 3.63 µM

The value of TGI recorded for COc1cccc(Nc2nc(NNC(=O)Cc3ccccc3)nc(NNC(=O)c3ccncc3)n2)c1 when tested on OVCAR-8 ovarian reads > 100 µM

The value of TGI recorded for COc1cc2c(cc1OCCCCNC(=O)c1cc3ccccc3[nH]1)N=CC1CCCN1C2=O (stereo not given) when tested on OVCAR-8 ovarian reads 78.9 µM

The value of TGI recorded for CN(c1c(Cl)cccc1Cl)S(=O)(=O)c1ccccc1[N+](=O)[O-] when tested on OVCAR-8 ovarian reads > 100 µM

The value of TGI recorded for CCCCc1ccc(Nc2nc3c(ncn3C3OC(COC(C)=O)C(OC(C)=O)C3OC(C)=O)c(=O)[nH]2)cc1 (stereo not given) when tested on OVCAR-8 ovarian reads 34.7 µM

The value of TGI recorded for O=[N+]([O-])c1cccc(C2SCc3nc4ccccc4n32)c1 (stereo not given) when tested on OVCAR-8 ovarian reads > 100 µM

The value of TGI recorded for CSC1=N/C(=C\c2cccs2)C(=O)N1CN1CCOCC1 when tested on OVCAR-8 ovarian reads > 100 µM

###

TGI reference
test system: HCT-15 colon; assay: NCI tumour cell line growth inhibition, 48 h

Answered cases to consult:
[
  {
    "Compound": "Cc1csc2c(P(=O)(OC(C)C)OC(C)C)c(-c3ccccc3)cn12",
    "TGI": "31.6 µM"
  },
  {
    "Compound": "CSC1=N/C(=C\\c2cccs2)C(=O)N1CN1CCOCC1",
    "TGI": "> 100 µM"
  },
  {
    "Compound": "COC(=O)C(C(=O)C(=O)Nc1cccc(O)c1)c1nc2ccc(Cl)cc2[nH]c1=O (configuration not stated)",
    "TGI": "> 100 µM"
  },
  {
    "Compound": "O=C1CCc2c3c(c4c([nH]c5ccccc54)c2CC1)C(=O)NC3=O",
    "TGI": "> 100 µM"
  },
  {
    "Compound": "C/C(CN1C(=O)c2ccccc2C1=O)=N\\NS(=O)(=O)c1ccccc1",
    "TGI": "> 100 µM"
  }
]

Per the record, CCC(=O)C1=C(OC(C)=O)C2Cc3c(n(C)c4ccccc34)C(C1)N2C (configuration not stated) has TGI of 38 µM

Per the record, CCOC(=O)/C(C(=S)NC)=C(/N)N1CCCC1 has TGI of > 100 µM
